meta.source: patent US10017767B2

# TEST: MTT viability assay, U266
# Format: cell-based
# TEST_SETTINGS: human, U266 multiple myeloma cells, doxorubicin 40 nM, 48 h, read-out: viable cells (MTT assay)
RESULT_TYPE: viability at 48 h, 40 nM (%)
Report only the number, with the unit % understood.

[Q] So what's the measured viability at 48 h, 40 nM for this one? COc1cccc2c1C(=O)c1c(O)c3c(c(O)c1C2=O)C[C@@](O)(C(=O)CO)C[C@@H]3O[C@H]1C[C@H](N)[C@H](O)[C@H](C)O1
[A] 50

* * *

# TEST: MTT viability assay, U266
# Assay type: cell-based
# TEST_SETTINGS: human, U266 multiple myeloma cells, 10 μM, 72 h, read-out: 72 hour viability (MTT, normalized to DMSO)
# viability at 72 h, 10 µM values compiled below
Report only the number, with the unit % understood.

CCOc1cc2ncc(C#N)c(Nc3ccc(OCc4ccccn4)c(Cl)c3)c2cc1NC(=O)/C=C/CN(C)C; 56.9

[Q] So what's the measured viability at 72 h, 10 µM for this one? COc1cc(Nc2c(C#N)cnc3cc(OCCCN4CCN(C)CC4)c(OC)cc23)c(Cl)cc1Cl
[A] 53.8
